B1: TPR t1 (parent)
chain: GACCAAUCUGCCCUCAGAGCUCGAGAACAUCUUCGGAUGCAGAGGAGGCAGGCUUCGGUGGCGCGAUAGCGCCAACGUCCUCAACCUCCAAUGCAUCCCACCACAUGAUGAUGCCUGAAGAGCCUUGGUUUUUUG

Variants of: B1
testDetails: polymerase ribozyme fitness, log enrichment relative to wild type (log ratio); higher = more active; in vitro selection for triplet polymerase activity
# binarize polymerase ribozyme fitness (log ratio): threshold -4 inclusive, high side yes (1), low side no (0)

[[record]]
sequencetext = "GACCAAUCUGCACUCAGAGCUCGAGAACAUCCUCGGAUGCAGAGGAGGCAGGCUUCGGUGGCGCGAUAGCGCCAACGUCCUCAACCUCCAAUGCAUCCCACCACAUAAUGAUGCCUGAAAAGCCUUGGUUUUUUG"
group = "yes (1)"

[[record]]
sequencetext = "GACCAAUCUGCCCUCAGAGCUCGAGAACAUCUUCGGAUGCAGAGGAGGCAGGCUUCGGUGGCGUGAUAGCGCCAACGUCCUCAACCUCCAAUGCAUCCCACCACAUGAUGCUGCAUGAAGAGCCUUAGUUUUUUG"
group = "no (0)"

[[record]]
sequencetext = "GACCAAUCUGCCCUCAGAGCUCGAGAACAUCUUCGGAUGCAGAGGAGGCAGGCUUCGGUGGCGCGAUACCGCCAACGUCCUCAACCUCCAAUGCAUCCCACCACAUGAUGAUGCCUGAAGAGACUUGGUUUUUUG"
group = "yes (1)"

[[record]]
sequencetext = "GACCAAUCUGCCCUCAGAGCUCGAGAACAUCUUCGGAUGCAGAGGAGGCAGGCUUCGGUGGCGCGAUAGCGCCAAAGUCCUCAACCUCCAGUGCAUCCCACCACAUGAUGAUGCAUGAAGAGCCUUGGUUUUUUG"
group = "yes (1)"

[[record]]
sequencetext = "GACCAAUCUGCCCUCAGAGCUCGAGAACAUCUUCGGAUACAGAGGAGGCAGGCUUCGGUGGCGCGAUAGCGCCAACGUCCUCAACCUACAAUGCAUCCCACCACAUGAUGAUGCCUGAAGAGCCUUGGUUUUUUG"
group = "yes (1)"


# input Exam item: decide whether the reported polymerase ribozyme fitness (log ratio) for GACCAAUCUGCCCUCAGAGCUCGAGAACAUCUUCGGAUGCAGAGGAGGCACGCUUCGGAGGCGCGAUAGCGCCAACGUCCUUAACCUCCAAUGCAUCUCACCACAUGAUGAUGCCUGAAGAGCCUUGGUUUUUUG is at least -4.
# output no (0)

# input // same read-out, input: GACCACUCUGCCCUCAGAGCUCGAGAACAUCUUCGGAUGCAGAGGAGGCAGGCUUCGGUGGCGCGAUAGGGCCAACGUCCUCAACCUCCAAUGCAUCCCACCACAUGAUGAUGCCUGAAGAGCCUUGGUUUUUUG
# output yes (1)

# input // same read-out, input: GACCAAUCUGCCCUCAGAGCUCGGGAACAUCUUCGGAUGCAGAGGAGGCAGGCUUCAGUGGCGCGAUAGCGCCAACGCCCUCAACCUCCAAUGCAUCCCAACACAUGAUGAUGCCUGAAGAGCCUUGGUUUUUUG
# output no (0)

# input // same read-out, input: GACCAAUCUGCCCUCAGAGCUCGAGAACAUCUUCGGAUGCAGAGGAGGCAGGCUUCGGUGGCGCGAUAGCGCCAACGACCUCAACCUCCAAUGCAUCCCACCACAUGAUGAUGCCUAAAGAGCCUUGGUUUUUUG
# output yes (1)

# input // same read-out, input: GACCAAUCUGCCCUCAGAGCUCGAGAACAUCUUCGGAUGCAGAGGAGGCAGGCUUCGGUGGCGCGAUAGCGCCAACGUCCUCAACCUCCAAUGCAUCCCACCACAUGAGGAUGCCUGAAGAGCCUUGGAUUUUUG
# output no (0)

# input // same read-out, input: GACCAAUCGGCCCUCAGAGCUCGAGAAGAUCUUCGGAUGCAGAGGAGGCAGGCUUCGGUGGCGCGAUAGCGCCAACGUCCUCAACCUCCAAUGCAUCCCACCACAUGAUGCUGCCUGAAGAACCUUGGUUUUUUG
# output no (0)
